- Test system: SK-MEL-28 melanoma
- assay: NCI-60 one-dose screen, 48 h
- settings: 10 µM unless noted
Compounds without any hit were thinned out: in the full panel of roughly 83,000, 20% have a hit. The source made the active and inactive calls. The calls were made as follows: active = growth percent below 10; inactive = the rest.
Outcomes: class 1 = active, class 0 = inactive

>  <compound>
COc1ccc(C#Cc2ccc(=O)oc2-c2cc(OC)c(OC)c(OC)c2)cc1O

>  <label value>
class 0

$$$$
>  <compound>
COc1ccc(/C=C(/c2ccccc2)[N+](=O)[O-])c(OC)c1

>  <label value>
class 1

$$$$
>  <compound>
COc1ccc(C(O)c2cc3c(N)c(C(=O)Nc4cccc(Cl)c4C)sc3nc2C)cc1 (centres undefined)

>  <label value>
class 0

$$$$
>  <compound>
O=c1ccc(=O)n(-c2nc(-c3ccc([N+](=O)[O-])cc3)cs2)[nH]1

>  <label value>
class 0

$$$$
>  <compound>
CCCCNc1nnc2n(Cc3ccccc3)c(=O)c3c4c(sc3n12)CCCC4

>  <label value>
class 0

$$$$
>  <compound>
CSC(SC)=C(C#N)c1nc2ccccc2s1

>  <label value>
class 0

$$$$
>  <compound>
O=C1C(Nc2ccccn2)=C(I)C(=O)c2ncccc21

>  <label value>
class 1

$$$$
>  <compound>
Cc1ccc(-c2nc(N3CCNCC3)c3oc(-c4ccc(C)cc4)nc3n2)cc1

>  <label value>
class 0

$$$$
>  <compound>
O=C1c2ccccc2C(=O)c2c1c(C(=O)NCc1ccccc1)c1ccccn21

>  <label value>
class 0

$$$$
>  <compound>
CCCCCCCC/C=C\CCCCCCCCOc1ccc(CC(=O)NCC[N+]2(C)CCOCC2)cc1

>  <label value>
class 0

$$$$
>  <compound>
CCN1C(=O)N(CC)C2C1NN=c1s/c(=C\c3cnc(C)n3C)c(=O)n12 (centres undefined)

>  <label value>
class 0

$$$$
>  <compound>
COc1ccc(C2=NN(C(C)=O)C(c3cn(-c4ccccc4)nc3-c3ccc(Cl)cc3)C2)cc1 (centres undefined)

>  <label value>
class 0

$$$$
>  <compound>
CC1=C2[C@@H](CC1)[C@]1(C)O[C@@](C3CCCCC3)(C[C@H]1OC(=O)CO)[C@H]2OC(=O)/C=C/c1ccccc1

>  <label value>
class 0

$$$$
>  <compound>
CCOC(=O)/C=C1\S/C(=N\Nc2cc(=O)[nH]c3ccccc23)N(c2ccccc2)C1=O

>  <label value>
class 0

$$$$
>  <compound>
C=C(C)[C@@H]1CC[C@]2(C(=O)N3CCN(C)CC3)CC[C@]3(C)[C@H](CC[C@@H]4[C@@]5(C)CC[C@H](OC(=O)c6ccccc6C(=O)O)C(C)(C)[C@@H]5CC[C@]43C)[C@@H]12

>  <label value>
class 0

$$$$
>  <compound>
CCN1C2CCC1/C(=C\c1ccc(F)cc1)C(=O)/C2=C/c1ccc(F)cc1

>  <label value>
class 0

$$$$
>  <compound>
CN1CCN(c2ccc3nc4c(nc3c2C(F)(F)F)C(=O)c2ncccc2C4=O)CC1

>  <label value>
class 1

$$$$
>  <compound>
Cc1ccc2c(-n3nc(C#N)c(C#N)c3N)cc(=O)[nH]c2c1

>  <label value>
class 0

$$$$
>  <compound>
COc1ccc(C2=CC(c3cc(OC)c(OC)c(OC)c3)n3ncnc3N2)cc1 (centres undefined)

>  <label value>
class 0

$$$$
